Target: T1, VEGFR2 on the cell surface of human umbilical vein endothelial cells (HUVEC) (human, UniProt P35968 20-1356)
T1 construct: Endogenous receptor of human cells; also called cell-surface VEGFR2; cellular VEGFR2
T1 sequence (P35968 20-1356 limits assumed): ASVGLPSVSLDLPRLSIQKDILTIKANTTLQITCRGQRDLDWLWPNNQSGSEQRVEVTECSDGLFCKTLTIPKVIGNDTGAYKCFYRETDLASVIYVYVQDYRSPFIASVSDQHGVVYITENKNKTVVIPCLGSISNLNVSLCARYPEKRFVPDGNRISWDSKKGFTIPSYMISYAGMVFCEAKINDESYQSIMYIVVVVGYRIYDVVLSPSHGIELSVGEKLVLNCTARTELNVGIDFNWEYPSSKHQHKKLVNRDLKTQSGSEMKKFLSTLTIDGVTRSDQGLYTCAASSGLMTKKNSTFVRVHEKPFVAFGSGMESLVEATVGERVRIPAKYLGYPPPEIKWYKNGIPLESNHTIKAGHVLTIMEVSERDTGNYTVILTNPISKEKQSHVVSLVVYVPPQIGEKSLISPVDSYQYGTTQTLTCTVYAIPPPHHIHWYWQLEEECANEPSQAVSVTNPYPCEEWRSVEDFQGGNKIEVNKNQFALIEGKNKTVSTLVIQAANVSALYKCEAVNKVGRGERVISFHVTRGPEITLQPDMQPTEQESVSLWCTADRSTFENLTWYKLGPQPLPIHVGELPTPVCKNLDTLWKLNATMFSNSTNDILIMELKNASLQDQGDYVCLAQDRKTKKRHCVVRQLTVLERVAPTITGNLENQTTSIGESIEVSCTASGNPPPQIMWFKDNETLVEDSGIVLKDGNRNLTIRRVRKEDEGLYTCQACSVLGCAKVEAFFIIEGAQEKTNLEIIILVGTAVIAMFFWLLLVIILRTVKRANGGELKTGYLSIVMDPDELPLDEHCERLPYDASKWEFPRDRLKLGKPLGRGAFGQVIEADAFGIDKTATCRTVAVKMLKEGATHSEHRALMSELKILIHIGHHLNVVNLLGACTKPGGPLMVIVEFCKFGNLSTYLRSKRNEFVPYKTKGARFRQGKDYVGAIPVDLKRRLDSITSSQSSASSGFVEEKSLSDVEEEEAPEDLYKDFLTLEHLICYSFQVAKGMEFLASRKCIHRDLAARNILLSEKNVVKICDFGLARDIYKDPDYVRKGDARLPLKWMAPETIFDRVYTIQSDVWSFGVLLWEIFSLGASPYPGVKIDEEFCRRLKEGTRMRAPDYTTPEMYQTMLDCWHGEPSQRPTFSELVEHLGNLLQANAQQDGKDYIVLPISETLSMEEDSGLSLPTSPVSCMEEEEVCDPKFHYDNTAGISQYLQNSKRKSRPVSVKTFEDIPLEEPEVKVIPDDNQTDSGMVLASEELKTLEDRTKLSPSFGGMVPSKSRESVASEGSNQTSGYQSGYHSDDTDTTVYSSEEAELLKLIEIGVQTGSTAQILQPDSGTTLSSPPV
Assay: flow cytometry on HUVECs, 1x10^10 cfu phage, anti-M13 and PE-labelled secondary antibody

| binder | binding result |
| --- | --- |
| R2PC45 (scFv, V domains shown, also called anti-VEGFR2 scFv phage clone 45) VH: QVNLRESGGGVVQPGRSLRLSCAASGFTFSSYAMHWVRQAPGKGLEWVAVISYDGSNKYYADSVKGRFTISRDNSKNTLYLQMNSLRAEDTAVYYCAREQDYGSSSGDAFDIWGQGTMVTVSS VL: DIQMTQSPSSLSASVGDRVTITCRASQRISSYLNWYQQKPGKAPKLLIYDASNLQSGVPSRFSGSGSGTDFTLTINGLQPDDFAIYFCHQSYSAPPTFGQGTKVEIK | binds |
